Biological target: furin, P09958;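 also: purified furin at 1:10 enzyme:substrate in 50 mM HEPES pH 7.5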
Sequence (P09958 whole entry): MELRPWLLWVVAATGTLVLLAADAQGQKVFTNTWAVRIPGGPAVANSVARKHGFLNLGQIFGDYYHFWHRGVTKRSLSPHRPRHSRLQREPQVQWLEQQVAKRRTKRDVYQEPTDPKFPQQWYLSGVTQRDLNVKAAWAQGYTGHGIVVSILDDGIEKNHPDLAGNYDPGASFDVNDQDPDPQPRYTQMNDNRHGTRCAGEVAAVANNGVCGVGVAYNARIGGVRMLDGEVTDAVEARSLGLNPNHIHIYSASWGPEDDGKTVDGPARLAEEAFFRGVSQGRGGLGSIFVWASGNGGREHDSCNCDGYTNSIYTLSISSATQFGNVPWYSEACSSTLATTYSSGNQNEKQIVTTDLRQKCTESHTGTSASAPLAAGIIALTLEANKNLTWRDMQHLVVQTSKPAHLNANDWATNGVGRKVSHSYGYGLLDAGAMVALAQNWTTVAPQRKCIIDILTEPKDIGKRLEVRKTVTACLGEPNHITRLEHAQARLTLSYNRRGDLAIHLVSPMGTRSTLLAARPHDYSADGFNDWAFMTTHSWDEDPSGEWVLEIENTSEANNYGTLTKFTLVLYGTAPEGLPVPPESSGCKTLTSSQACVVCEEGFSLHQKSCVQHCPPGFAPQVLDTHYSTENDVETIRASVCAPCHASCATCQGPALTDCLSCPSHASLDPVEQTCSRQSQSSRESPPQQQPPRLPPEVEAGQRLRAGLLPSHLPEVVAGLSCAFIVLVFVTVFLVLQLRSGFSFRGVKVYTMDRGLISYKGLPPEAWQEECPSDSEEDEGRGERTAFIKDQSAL
Experiment: furin cleavage Z-score vs untreated control; higher = more cleavage, active = 3.5 or more, inactive = 1 or less, 8 variable residues between constant flanks
Details: 7.5 min
Some of the results follow. No count for the full screen is at hand.
Here, each record is paired with measured furin cleavage Z-score data.
Kindly provide the number alone.

Tell me furin cleavage Z-score reported for CASNCRHERDAGNASASA [FS-722]
1.11

Tell me furin cleavage Z-score reported for CATTPCSISWAGNASASA [HC1884]
1.02

Tell me furin cleavage Z-score reported for CARRKRQIYGAGNASASA [FS-3055]
2.2

Tell me furin cleavage Z-score reported for CAGAERKMRDAGNASASA [FS-653]
2.56

Tell me furin cleavage Z-score reported for CARKRRNLETAGNASASA [FS-2700]
7.71

Where do these numbers come from? They come from the supplement of paper PMC3545927.
